Source: PubChem BioAssay (NCATS)

# TEST PROTOCOL: qHTS of pediatric cancer cell lines to identify multiple opportunities for drug repurposing: Primary screen for MG 63 (6-TG R) cells (AID 1347105); further: nearly all actives have a fitted effect of over 50% in size; further: potency means the concentration at half of the fitted maximal effect
# RUN CONDITIONS: MG 63 (6-TG R) viability, CellTiter-Glo, 48 h; series mostly up to 46 µM
# Experimental: Drug repurposing or repositioning has been offered as a strategy for drug development in oncology programs. This approach has special potential for childhood cancers and other rare or orphan diseases, where the expected return on new drug development has been a disincentive to pharmaceuticals. […] We employed a titration-based paradigm (quantitative high-throughput screening or qHTS), where all compounds were tested at multiple concentrations for their effect on cell viability. […]
Inconclusive results are not listed. Active and inactive are the calls of the source. The call rests on the fitted dose curve; in most records, active means well fitted cell-killing curve with a large enough effect; inconclusive means small, poorly fitted or top-dose-only effect; inactive means no such curve, though single readings can be large or run the other way.
METRIC NAME: Potency

Observe how each entry below is paired with its result.
Output Potency of `Nc1nc(=O)n([C@@H]2O[C@H](CO)[C@@H](O)[C@@H]2F)cc1I` inactive

Output Potency of `OC1(c2ccc(Cl)cc2)CCNCC1` inactive

Output Potency of `Nc1ccc(C(=O)N2CC3CC(CN(Cc4ccccc4)C3)C2)cc1` inactive

Output Potency of `CN1C(=O)c2ccccc2C1=O` inactive

Output Potency of `O=C(OCC(COC(=O)c1cccnc1)(COC(=O)c1cccnc1)COC(=O)c1cccnc1)c1cccnc1` inactive

***
Output Potency of CC1c2ccccc2CN1NC(=O)c1ccc(Cl)c(S(N)(=O)=O)c1 (centres undefined) inactive

Output Potency of CC(=O)O[C@@H]1CC2C3CCc4cc(OC(=O)c5ccccc5)ccc4C3CCC2(C)[C@H]1OC(C)=O (some centres undefined) inactive

Output Potency of CCN1CCCC1CN (centres undefined) inactive

Output Potency of `NCC(=O)O` inactive

Output Potency of `CCCCCCCCCCCCCCCC[N+](C)(C)Cc1ccccc1` 26.6 µM (active)

----------
# TEST PROTOCOL: qHTS of pediatric cancer cell lines to identify multiple opportunities for drug repurposing: Primary screen for BT-12 cells (AID 1347101); further: nearly all actives have a fitted effect of over 25% in size
# RUN CONDITIONS: BT-12 viability, CellTiter-Glo luminescence, 48 h; series mostly up to 57.3 µM
Inconclusive results are not listed. Activity calls are given as the source filed them. Calls follow the shape of the dose curve; as a rule, active = well fitted cell-killing curve with a large enough effect; inconclusive = small, poorly fitted or top-dose-only effect; inactive = flat fitted curve, though single readings scatter.
Hi there, use one of these labels in your reply, thanks! active, inactive

Query: recorded result category for COc1cc(C(=O)OC(COCCC(C)C)CN2CCOCC2)cc(OC)c1OC (centres undefined) in this test inactive

Query: recorded result category for `CC[C@@]1(O)C(=O)OCc2c1cc1n(c2=O)Cc2c-1nc1ccccc1c2/C=N/OC(C)(C)C` in this test active

Query: recorded result category for `CC1(C)O[C@@H]2C[C@H]3[C@@H]4C[C@H](F)C5=CC(=O)C=C[C@]5(C)[C@@]4(F)[C@@H](O)C[C@]3(C)[C@]2(C(=O)CO)O1` in this test inactive

Query: recorded result category for `CC(=O)OCC(=O)Nc1cc(C#N)cc(NC(=O)COC(C)=O)c1Cl` in this test inactive

Query: recorded result category for `CCCCNc1ccc(C(=O)OCCN(CC)CC)cc1` in this test inactive

***
Query: recorded result category for `Cc1[nH]cnc1-c1ccc(Cl)cc1` in this test inactive

Query: recorded result category for `CN(C)C(=O)CNC(=O)Cc1ccccc1` in this test inactive

Query: recorded result category for C[N+]1(CC2COC(c3ccccc3)(c3ccccc3)O2)CCCCC1 (centres undefined) in this test inactive

Query: recorded result category for `Cc1coc2ccccc2c1=O` in this test inactive

Query: recorded result category for `Cc1cc(O)c(C)c(C)c1O` in this test inactive
